# Biodistribution: Spleen annotations
- assay_text: In vivo biodistribution in mice
- Design: species or system normal CD-1 male mice
- measurement_context: iv, 120 min post injection
// note: answer is a bare numeric in % dose/g

Recorded results for 4 molecules are shown here.
1. C[C@H](NC(=O)CCc1ccc([O-])c(CN(CCN(CC(=O)[O-])Cc2cc(CCC(=O)NC(P(=O)(O)O)P(=O)(O)O)ccc2[O-])CC(=O)[O-])c1)C(=O)O.[68Ga+3] [[^68Ga]1d]	0.05
2. O=C([O-])CN(CCN(CC(=O)[O-])Cc1cc(CCC(=O)O)ccc1[O-])Cc1cc(CCC(=O)O)ccc1[O-].[68Ga+3] [[^68Ga]HBED-CC, reference compound]	0.13
3. O=C([O-])CN(CCN(CC(=O)[O-])Cc1cc(CCC(=O)NC(P(=O)(O)O)P(=O)(O)O)ccc1[O-])Cc1cc(CCC(=O)O)ccc1[O-].[68Ga+3] [[^68Ga]1a]	0.09
4. O=C([O-])CN(CCN(CC(=O)[O-])Cc1cc(CCC(=O)NC(P(=O)(O)O)P(=O)(O)O)ccc1[O-])Cc1cc(CCC(=O)NCCCCCC(=O)NCCCC[C@H](NC(=O)N[C@@H](CCC(=O)O)C(=O)O)C(=O)O)ccc1[O-].[68Ga+3] [[^68Ga]1g]	0.87

Moving on to the next molecule.
input: Given the entry O=C(O)CN1CCN(CC(=O)O)CCN(CC(=O)NC(P(=O)(O)O)P(=O)(O)O)CCN(CC(=O)O)CC1.[68Ga] [[^68Ga]BPAMD, reference compound] , report its measured Biodistribution: Spleen.
output: 0.25

src = patent US10253052B2
